Molecular target: aggrecanase-1 (Homo sapiens, UniProt O75173)
Sequence (O75173 213-837): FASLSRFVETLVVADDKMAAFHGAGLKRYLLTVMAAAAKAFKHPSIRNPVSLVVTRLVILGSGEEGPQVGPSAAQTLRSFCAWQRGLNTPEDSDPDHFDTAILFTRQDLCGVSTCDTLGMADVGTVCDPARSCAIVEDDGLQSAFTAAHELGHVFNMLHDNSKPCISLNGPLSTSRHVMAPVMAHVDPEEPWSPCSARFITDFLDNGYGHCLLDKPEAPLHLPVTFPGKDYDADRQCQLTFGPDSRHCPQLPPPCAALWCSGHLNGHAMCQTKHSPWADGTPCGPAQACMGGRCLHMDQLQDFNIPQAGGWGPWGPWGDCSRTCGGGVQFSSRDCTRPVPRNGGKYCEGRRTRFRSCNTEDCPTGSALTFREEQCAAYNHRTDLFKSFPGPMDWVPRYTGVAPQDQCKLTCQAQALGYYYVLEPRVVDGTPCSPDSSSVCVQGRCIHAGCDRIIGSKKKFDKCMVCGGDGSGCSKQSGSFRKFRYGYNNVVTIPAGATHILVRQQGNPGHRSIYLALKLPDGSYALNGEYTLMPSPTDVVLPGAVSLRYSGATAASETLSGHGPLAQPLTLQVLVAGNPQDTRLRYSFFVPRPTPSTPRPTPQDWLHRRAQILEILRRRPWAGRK
observable: IC50

[[record]]
compound = "O=C(O)CCCN([C@]1(C(=O)O)C[C@H]1c1ccccc1)S(=O)(=O)c1ccc(-c2ccc(Cl)cc2)cc1 (relative stereo) [Example 1-93]"
tested_target = "aggrecanase-1 (Homo sapiens, UniProt O75173)"
observable = "IC50"
assay_value = "< 1000 nM"


Lab request: please report IC50 under test system aggrecanase-1 (Homo sapiens, UniProt O75173) for O=C(O)c1cn(CCN(C2(C(=O)O)CC2c2ccccc2)S(=O)(=O)c2ccc(-c3ccc(Cl)cc3)cc2)cn1 (stereo not drawn) [Example 1-104]
< 100 nM

The reported numbers originate from patent US20050222146A1.
